B1: OR4K15 (parent)
chain: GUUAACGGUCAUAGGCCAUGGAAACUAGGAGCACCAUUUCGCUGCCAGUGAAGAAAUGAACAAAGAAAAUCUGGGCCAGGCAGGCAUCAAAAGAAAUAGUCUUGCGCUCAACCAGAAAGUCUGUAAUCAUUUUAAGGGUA

Variants of: B1
assay notes: self-cleavage, relative activity (ratio to wild type); higher = more cleavage; in vitro, sequencing; the parent is a self-cleaving ribozyme
Decide using self-cleavage: a value greater than or equal to 1 is rule met, a smaller one is rule not met.

>>> label("GAUAACGGUCAUAGGCCAUGGAAACUAGGAGCACCAUUUCGCUGCCAGUGAAGAAAUGAACAAAGAAAAUCUGGGCCAGGCAGGCAUCAAAAGAAAUAGUCUUGCGCUCAACCAGUAAGUCUGUAAUCAUUUUAAGGGUA [U2A A116U]")
"rule not met"
>>> label("GUUAACGGUCAUAGGCCAUGGAAACUAGGAGCACCAUUUCGCUGCCAGUGAAGAAAAGAACAAAGAAUAUCUGGGCCAGGCAGGCAUCAAAAGAAAUAGUCUUGCGCUCAACCAGAAAGUCUGUAAUCAUUUUAAGGGUA [U57A A68U]")
"rule met"
>>> label("GUUAACGGUCAUAGGCCAUGGAAACUAGGAGCACCAUUUCGCUGCCAGUGAAGAAAUGAACAAAGAAAAUCUGGGCCAGGCAGGCAUCAAAAGAAAUAGUAUUGCGCUCAACCAGAAGGUCUGUAAUCAUUUUAAGGGUA [C101A A118G]")
"rule not met"
>>> label("GUUAACGGUCAUAGGCCAUGGAAACUAGGAGCACCAUUUCGCUGCCAGUGAAGAAAUGAACAAAGAAAAUCUGGGCCAGGCAGGCAUCUAAAGAAAUAGUCUUGCGCUCAACCAGAAAGUCUGUAAUCAUUUUAAGGGUG [A89U A140G]")
"rule met"
>>> label("GUUAACGGUCAUAGGCCAUGGAAACUAGGAGCACCAUUUCGCUGCCAGUGAAGACAUGAACAAAGAAAAUCUGGGCCAGGCAGGCAUCAAAAGAAAUAGUCUUGCGCUCAACCAGAAAGUCUGUAAUCGUUUUAAGGGUA [A55C A129G]")
"rule met"
>>> label("GUUAACGGUUAUAGGCCAUGGAAACUAGGAGCACCAUUUCGCUGCCAGUGAAGAAAUGAACAAAGAAAAUCUGGGCCAGGCAGGCAUCAAAAGAAAUAGUCUUGCGCUCGACCAGAAAGUCUGUAAUCAUUUUAAGGGUA [C10U A110G]")
"rule not met"
>>> label("GUUAACGGUCAUAGGCCAUGGAAACUAGGAGCACUAUUUCGCUGCCAGUGAAGAAAUGAACAAAGAAAAUCUGGGCCAGGCAGGCAUCAAAUGAAAUAGUCUUGCGCUCAACCAGAAAGUCUGUAAUCAUUUUAAGGGUA [C35U A92U]")
"rule met"
>>> label("GUUAACGGUCAUAGGCCAUGGAAACUAGGAGCACCAUUUCGCUGCCAGUGAAGAAAUGAACAAAGGAAAUCUGGGCCAGGCAGGCAUCAAAAGACAUAGUCUUGCGCUCAACCAGAAAGUCUGUAAUCAUUUUAAGGGUA [A66G A95C]")
"rule met"
>>> label("GUUAACGGUCAUAGGCCAUGGAAACUAGGAGCACCAUUUCGCUGCCAGUGAAGAAAUGAACAAAGAAAAUCCGGGCCAGGCAGGCAUCAAAAGAAAUAGUCUUGCGCUCAACCAGAAAGUCUGUAAACAUUUUAAGGGUA [U72C U127A]")
"rule not met"
>>> label("GAUAACGGUCAUAGGCCAUGGAAACUAGGAGCACCAUUUCGCUGCCAGUGAAGAAAUGAACAAAGAAAAUCUGGGCCAGGCAGGCAUCAAAAGAAAUAGUCUUGCGCUCAACCAGAAAGUCUGUAAUCAUUUUAAGGGAA [U2A U139A]")
"rule met"
>>> label("GUUAACGGUCAUAGGCCAUGGAAACUAGGAGCACCAUUUCGCUGCCAGUGAAGAAACGAACAAAGAAAAUCUGGGCCAGGCAGGCAUCAAAAGAAAUAGUCUUGCGCUCAGCCAGAAAGUCUGUAAUCAUUUUAAGGGUA [U57C A111G]")
"rule not met"
>>> label("GUUAACGCUCAUAGGCCAUGGAAACUAGGAGCACCAUUUCGCCGCCAGUGAAGAAAUGAACAAAGAAAAUCUGGGCCAGGCAGGCAUCAAAAGAAAUAGUCUUGCGCUCAACCAGAAAGUCUGUAAUCAUUUUAAGGGUA [G8C U43C]")
"rule met"
>>> label("GUUAACGGUCAUAGGCCAUGGAAACUAGGAGCACCAUUUCGCUGCCAGUGAAGAAAUGAACAAAGAAAGUCUGGGCCAGGCAGGCAUCAAAAGAAAUAGUCUUGCGCUCAACCAGAAAGUCUGAAAUCAUUUUAAGGGUA [A69G U124A]")
"rule not met"
>>> label("GUUAACGGUCGUAGGCCAUGGAAACUAGGAGCACCAUUUCGCUGCCAGUGAAGAAAUGAACAAAGAAAAUCUGGGCCAGGCAGGCAUCAAAAGAAAUAGUCUUGCGCUCGACCAGAAAGUCUGUAAUCAUUUUAAGGGUA [A11G A110G]")
"rule not met"
>>> label("GUUAACGGUCAUAGGCCAUGGAAACUAGGAGCACCAUUUCGCUGCCAGUGAAGAAAUGAACAAAGAGAAUCUGGGCCAGGCAGGCAUCAAAAGAUAUAGUCUUGCGCUCAACCAGAAAGUCUGUAAUCAUUUUAAGGGUA [A67G A95U]")
"rule met"
>>> label("GUUAACGGUCAUAGGCCAUGGAAACUAGGAGCACCAUUUCGCUGCCAGUGAAGAAAUGAACAAAGAAAAUAUGGGCCAGGCAGGCAUCAAAAGAAAUAGUCUUGCGCUCAACCAGAAAGUCUGCAAUCAUUUUAAGGGUA [C71A U124C]")
"rule not met"
>>> label("GUUACCGGUCAUAGGCCAUGGAAACUAGGAGCGCCAUUUCGCUGCCAGUGAAGAAAUGAACAAAGAAAAUCUGGGCCAGGCAGGCAUCAAAAGAAAUAGUCUUGCGCUCAACCAGAAAGUCUGUAAUCAUUUUAAGGGUA [A5C A33G]")
"rule not met"
>>> label("GUUAACGGUCAUAGGCCAUGGAAACUAGGAGCACCAUUUCGCUGCCAGCGAAGAAAUGAACAAAGAAAAUCUGGGCCAGGCAGGCAUCAAAAGAAAUAGUCUUGCGCUCAACCAGAAAAUCUGUAAUCAUUUUAAGGGUA [U49C G119A]")
"rule met"
>>> label("GUUAACGGUUAUAGGCCAUGGAAACUAGGAGCACCAUUUCGCUGCCAGUGAAGAAAUGAACAAAGAAAAUCUGGGCCAGGCAGGCAUCAAAAGAAAUAGUCUUGCGCUCAACCAGAGAGUCUGUAAUCAUUUUAAGGGUA [C10U A117G]")
"rule met"
>>> label("GUUAACGGUCAUAGGCCAUGGAAACUAGGAGCACCAUUUCGCUGCCAGUGAAGAAAUGAACAAAGAAAAUCUGGGCCAGGCAGGCAUCAAAAGAAAUAGUCUUGCGCCCCACCAGAAAGUCUGUAAUCAUUUUAAGGGUA [U108C A110C]")
"rule not met"
>>> label("GUUAACGGUCAUAGGCCAUGGAAACCAGGAGCACCAUUUCGCUGCCAGUGAAGAAAUGAACAAAGAAAAUCUGGGCCAGGCAGGCUUCAAAAGAAAUAGUCUUGCGCUCAACCAGAAAGUCUGUAAUCAUUUUAAGGGUA [U26C A86U]")
"rule met"
>>> label("GUUAACGGUCAUAGGCCAUGGAAACUAGGAGCACCAUUUCGCUGCCAGUGAAGAAAUGAACAAAGAAAAUCUGGGCCAGGCAGGCUUCAAAAGAAAUAGUCUUGCGCUCAACCAGAAAGCCUGUAAUCAUUUUAAGGGUA [A86U U120C]")
"rule met"
